# Test system: NCI-H226 lung
# experiment-summary: NCI-60 one-dose screen, 48 h
# setup-conditions: 10 µM unless noted
This is part of a sample that, as a whole, favours compounds with a hit. Of some 83,000 tested, about 20% had one in any assay. Calls of active or inactive are those of the source. Rule for the calls: active = growth percent below 10; inactive = the rest.
Hi there, use one of these labels in your reply, thanks! active, inactive

These recorded examples may help you get a feel for the data.
INSERT INTO results (molecule, class) VALUES
  ('CNC(=O)Nc1ccc(Nc2cc(-c3ccc(-n4cccn4)cc3)[nH]n2)c(C)c1', 'inactive'),
  ('CCC(=C(c1ccc(OCCN(C)C)cc1)c1ccc(OCCN(C)C)cc1)c1ccc(Cl)cc1', 'inactive'),
  ('CC1CC(=O)C2=C(C1)Nc1ccc(Br)cc1CC2c1c[nH]c2ccc(Br)cc12 (configuration not stated)', 'inactive'),
  ('C=C(C)[C@@H]1CC[C@]2(C(=O)O)CC[C@]3(C)[C@H](CC[C@@H]4[C@@]5(C)C/C(=C/c6ccccn6)C(=O)C(C)(C)[C@@H]5CC[C@]43C)[C@@H]12', 'inactive'),
  ('Cc1ccc(Nc2nc(SC(C)C)nc(-c3ccccc3)c2C#N)cc1', 'inactive'),
  ('Brc1cc(-c2cc(-c3ccc4c(c3)OCCO4)[nH]n2)cs1', 'inactive'),
  ('CCCCN1C(=O)/C(=c2\sc3n(c2=O)C2C(NN=3)N(CC)C(=O)N2CC)c2cc(C)ccc21 (configuration not stated)', 'inactive'),
  ('Cc1ccsc1[C@H]1c2[nH]c3ccccc3c2C[C@H]2C(=O)N(CCCCCCC(=O)NO)CC(=O)N12', 'inactive');

Which outcome was entered for the molecule Cc1ccc(S(=O)(=O)NCCCNc2nccc(-c3[nH]c(-c4ccccc4)nc3-c3ccc(F)c(O)c3)n2)cc1 in this test?
inactive

Which outcome was entered for the molecule O=[N+]([O-])c1ccc(NC(=S)NNC(=S)Nc2ccc(F)cc2)cc1 in this test?
inactive

Which outcome was entered for the molecule Cc1ccc2c(n1)C(=O)C(Cl)=C(Nc1cccc(C)c1C)C2=O in this test?
inactive

Which outcome was entered for the molecule CCOC(=O)c1c(NCC(=O)Nc2cccc([N+](=O)[O-])c2)sc(C(C)=O)c1C in this test?
active

Which outcome was entered for the molecule CC(=O)c1cc(C(=O)N2c3ccccc3Sc3ccccc32)n2c1ccc1ccccc12 in this test?
inactive

----------
# Tested on: SF-539 CNS
# experiment-summary: NCI-60 one-dose screen, 48 h
# setup-conditions: 10 µM unless noted
Compounds without any hit were thinned out: in the full panel of roughly 83,000, 20% have a hit. Activity calls are given as the source filed them. How the source made its calls: active means growth percent below 10; inactive means the rest.
Hi there, use one of these labels in your reply, thanks! t for active, f for inactive

Which outcome was entered for the compound CCN(CC)S(=O)(=O)c1ccc(-c2nc(C(Cl)Cl)nc3cc(C)nn23)cc1 in this test?
f

----------
# System: RPMI-8226 leukemia
# experiment-summary: NCI-60 one-dose screen, 48 h (100 = growth as untreated, 0 = no growth, -100 = all killed)
# setup-conditions: 10 µM unless noted
Compounds without any hit were thinned out: in the full panel of roughly 83,000, 20% have a hit.
Record true whenever growth is at 40% or higher; record false when lower.

These recorded examples may help you get a feel for the data.
INSERT INTO results (compound, class) VALUES
  ('Cc1ccc2c(n1)C(=O)C(Cl)=C(Nc1cccc(C(=O)OC(C)(C)C)c1)C2=O', 'false'),
  ('Clc1ccc2[nH]cc(-c3nn4cc(-c5ccncc5)nc4s3)c2c1', 'true'),
  ('COc1ccc(/C(=N\NC(N)=S)c2ccc(Cl)cc2)cc1OC', 'true'),
  ('CCN(CC)c1ccc(/C=N/NC(=O)c2ccc(S(N)(=O)=O)cc2)c(O)c1', 'false'),
  ('CC(C)NC(=O)c1cc(-c2ccc(NC(=O)Nc3ccc(F)cc3)cc2)nc2cccnc12', 'true'),
  ('Cc1ccc(NC(=O)Nc2nc3ccc([N+](=O)[O-])cc3s2)cc1', 'false'),
  ('O=C1/C(=C/c2cc(F)cc(F)c2)Cc2cc3c(cc21)OCO3', 'true'),
  ('Oc1[nH]c2ccc(Cl)cc2c1N=Nc1nc(N=Nc2c(O)[nH]c3ccc(Cl)cc23)nc(N2CCCCC2)n1', 'true'),
  ('COc1ccc(C2C(C#N)=C(/N=C/c3ccc(Cl)cc3)Oc3c2sc2c(C)cccc32)cc1 (configuration not stated)', 'false'),
  ('Cc1cc(=O)[nH]c(O)c1C#N', 'false');

Does the compound O=C1C(N2CCN(c3ccccc3)CC2)=C(Cl)C(=O)c2ncccc21 have recorded growth that is 40% or more?
false

Does the compound Fc1ccc(-c2cn3c(-c4c[nH]c5ccc(Br)cc45)csc3n2)cc1 have recorded growth that is 40% or more?
true

Does the compound Fc1cccc(Cl)c1/C=N/Nc1nc(N/N=C/c2c(F)cccc2Cl)nc(N2CCCCC2)n1 have recorded growth that is 40% or more?
false

Does the compound CC(Nc1c(C#N)cnc2ccc(-c3cncc(-c4n[nH]c(=O)o4)c3)cc12)c1ccccc1 (configuration not stated) have recorded growth that is 40% or more?
false

Does the compound CC(O)c1cccc(/C(N)=N/C(N)=N/c2nc3ccccc3s2)c1 (configuration not stated) have recorded growth that is 40% or more?
true

Does the compound CN(C)c1cccc2c(S(=O)(=O)Nc3cccc(-c4csc(NC(=O)CCCCCN5CCN(CCO)CC5)n4)c3)cccc12 have recorded growth that is 40% or more?
true

Does the compound CN1CC[C@@H]2[C@@]3(C)CC[C@H](O)C(C)(C)[C@@H]3CC[C@@]2(C)[C@]2(C)CC[C@@]3(CO)CCC(C)(C)C[C@@H]3C12 (some centres not stated) have recorded growth that is 40% or more?
true

Does the compound Nc1ncc(-c2ccc3ncnc(NCc4ccccc4)c3c2)cn1 have recorded growth that is 40% or more?
false

Does the compound Brc1cc(-c2cc(-c3ccc4c(c3)OCCO4)[nH]n2)cs1 have recorded growth that is 40% or more?
false

Does the compound O=C1Nc2cc(Cl)ccc2/C1=C\c1ccc(OCc2ccccc2)cc1 have recorded growth that is 40% or more?
true
